Origin of values: ChEMBL document CHEMBL3217747

System: Cerebrospinal fluid
Assay: Drug uptake in rat cerebrospinal fluid at 10 mg/kg, sc
Type: ADME, organism-based
Parameters: dose 10 mg/kg, route subcutaneous
Settings: in vivo, read-out: Drug uptake
metric: concentration (nM)
Respond numerically; units are nM and should not be typed.

Ask: Kindly indicate its recorded concentration. Item: CCC[C@@H](C)CN1CCC(c2cccc(O)c2)(c2ncc(C(=O)N(CC)CC)cn2)CC1
Reply: 103

====

Target: Delta-type opioid receptor (Homo sapiens)
Sequence (P41143 whole entry): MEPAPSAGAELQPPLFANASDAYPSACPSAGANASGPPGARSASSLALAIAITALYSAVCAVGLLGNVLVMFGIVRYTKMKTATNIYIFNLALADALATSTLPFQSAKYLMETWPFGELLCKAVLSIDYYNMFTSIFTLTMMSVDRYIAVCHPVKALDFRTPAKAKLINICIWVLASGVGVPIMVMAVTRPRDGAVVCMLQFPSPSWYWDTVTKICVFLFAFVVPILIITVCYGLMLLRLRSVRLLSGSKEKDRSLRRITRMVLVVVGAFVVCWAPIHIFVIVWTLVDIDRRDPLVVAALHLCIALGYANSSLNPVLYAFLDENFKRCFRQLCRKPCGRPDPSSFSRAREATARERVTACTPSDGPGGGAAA
Assay: Antagonist activity at delta opioid receptor (unknown origin) assessed as [35S]-GTPgammaS binding by liquid scintillation counting analysis
Assay type: functional
metric: IC50 (µM)
Respond numerically; units are µM and should not be typed.

> print(dat)
                                   compound  unitinfo  datavalue
1  CCCC(C)CN1CCC(c2cccc(C(N)=O)c2)(c2ncc(C(=O)N(CC)CC)cn2)CC1 (stereo not drawn)        µM      0.035

Ask: Kindly indicate its recorded IC50. Item: CCC[C@@H](C)CN1CCC(c2cccc(O)c2)(c2ncc(C(=O)N(CC)CC)cn2)CC1
Reply: 0.035

Ask: Kindly indicate its recorded IC50. Item: CCCC(C)CN1CCC(c2cccc(O)c2)(c2ncc(C(=O)N(CC)CC)cn2)CC1 (stereo not drawn)
Reply: 0.021
